Data origin: the Human Domainome abundance scans (Beltran et al. 2025)

B1: Homeobox protein cut-like 2, residues 895 to 963; numbered along this chain, O14529 (parent)
chain: EVDTLELTRQVKEKLAKNGICQRIFGEKVLGLSQGSVSDMLSRPKPWSKLTQKGREPFIRMQLWLSDQL

Variants of: B1
protocol-text: abundance fitness (aPCA) (normalised: wild type 0, dead -1); higher = more abundant; growth selection in yeast, the domain comes from the species named
measurement-parameters: Homo sapiens
Reported abundance fitness values for the following variants.

seq-string | abundance fitness
EVDTLELTRQVKEKLAKNGICQRIFGEKVLGLSQGSVSDMLSRPKPWSKLTQKGREPFIRMQLWLPDQL [S66P] | -0.998
EVDTLELTRQVKEKLAKNGICQRIFGEKVLGLSQGSVSDMLSRPKPWSKLTQKGVEPFIRMQLWLSDQL [R55V] | -0.487
EVDTLELTRQVKEKLAKNGICQRIFGEKVLGLSQGSVSDMLSRPKPWSKLTQKGREPIIRMQLWLSDQL [F58I] | -0.596

Q) Query: abundance fitness; subject: EVDTLEWTRQVKEKLAKNGICQRIFGEKVLGLSQGSVSDMLSRPKPWSKLTQKGREPFIRMQLWLSDQL [L7W]
A) -0.215

Q) Query: abundance fitness; subject: EVDTLELTRQVKEKLAKNGICQRIFGEKVLGLSQGSVSDMLSRPKPASKLTQKGREPFIRMQLWLSDQL [W47A]
A) -0.81

Q) Query: abundance fitness; subject: EVDTLELTRQVKEKLAKNGICQRRFGEKVLGLSQGSVSDMLSRPKPWSKLTQKGREPFIRMQLWLSDQL [I24R]
A) -0.093

Q) Query: abundance fitness; subject: EVDTLELTRQVKEKLAKNGICQRIFGEKVLGLSQGSVSDMLSRYKPWSKLTQKGREPFIRMQLWLSDQL [P44Y]
A) -0.041

Q) Query: abundance fitness; subject: EVDTLELTRQVKEKLAKNGICQRIFGEKVLGLIQGSVSDMLSRPKPWSKLTQKGREPFIRMQLWLSDQL [S33I]
A) -0.088
